- Tested on: Streptococcus pyogenes
- protocol.text: In vitro antimicrobial activity against Streptococcus pyogenes C203
- Format: functional
parameter.measured: MIC (µg/mL)
Please give a number only; it is taken to be in µg/mL.

Asked: # return recorded MIC for input CC[C@H]1OC(=O)C[C@@H](O)[C@H](C)[C@@H](O[C@@H]2O[C@H](C)[C@@H](O[C@H]3C[C@@](C)(O)[C@@H](O)[C@H](C)O3)[C@H](N(C)C)[C@H]2O)[C@@H](CC=O)C[C@@H](C)C(=O)/C=C/C(C)=C/[C@@H]1C
Given back: 0.25

* * *

Please respond with reported MIC for every item in the list.
- Test system: Staphylococcus epidermidis
- protocol.text: In vitro antimicrobial activity against Staphylococcus epidermidis EPI1
- Type: functional
Write the answer as a number in µg/mL, unit excluded.

Asked: State its MIC for this molecule: CC[C@H]1OC(=O)C[C@@H](O)[C@H](C)[C@@H](O[C@@H]2O[C@H](C)[C@@H](O)[C@H](N(C)C)[C@H]2O)[C@@H](CCF)C[C@@H](C)C(=O)/C=C/C(C)=C/[C@@H]1CO[C@@H]1O[C@H](C)[C@@H](O)[C@@H](OC)[C@H]1OC
Given back: 0.12

Asked: Query MIC for CC[C@H]1OC(=O)C[C@@H](O)[C@H](C)[C@@H](O[C@@H]2O[C@H](C)[C@@H](O)[C@H](N(C)C)[C@H]2O)[C@@H](CCN2CCCCCCC2)C[C@@H](C)C(=O)/C=C/C(C)=C/[C@@H]1CO[C@@H]1O[C@H](C)[C@@H](O)[C@@H](O)[C@H]1OC
Given back: 1

Asked: Indicate its recorded MIC; the molecule in question is CC[C@H]1OC(=O)C[C@@H](O)[C@H](C)[C@@H](O[C@@H]2O[C@H](C)[C@@H](O[C@H]3C[C@@](C)(O)[C@@H](O)[C@H](C)O3)[C@H](N(C)C)[C@H]2O)[C@@H](CCO)C[C@@H](C)C(=O)/C=C/C(C)=C/[C@@H]1CO
Given back: 128

Asked: Identify MIC associated with the molecule CC[C@H]1OC(=O)C[C@@H](O)[C@H](C)[C@@H](O[C@@H]2O[C@H](C)[C@@H](O[C@H]3C[C@@](C)(O)[C@@H](O)[C@H](C)O3)[C@H](N(C)C)[C@H]2O)[C@@H](CCN2CCCCCCC2)C[C@@H](C)C(=O)/C=C/C(C)=C/[C@@H]1CO[C@@H]1O[C@H](C)[C@@H](O)[C@@H](O)[C@H]1OC
Given back: 8
